Data credit: patent US8722896B2

experimental_system: recombinant PKR1 (Homo sapiens (Human))
Sequence (Q8TCW9 whole entry): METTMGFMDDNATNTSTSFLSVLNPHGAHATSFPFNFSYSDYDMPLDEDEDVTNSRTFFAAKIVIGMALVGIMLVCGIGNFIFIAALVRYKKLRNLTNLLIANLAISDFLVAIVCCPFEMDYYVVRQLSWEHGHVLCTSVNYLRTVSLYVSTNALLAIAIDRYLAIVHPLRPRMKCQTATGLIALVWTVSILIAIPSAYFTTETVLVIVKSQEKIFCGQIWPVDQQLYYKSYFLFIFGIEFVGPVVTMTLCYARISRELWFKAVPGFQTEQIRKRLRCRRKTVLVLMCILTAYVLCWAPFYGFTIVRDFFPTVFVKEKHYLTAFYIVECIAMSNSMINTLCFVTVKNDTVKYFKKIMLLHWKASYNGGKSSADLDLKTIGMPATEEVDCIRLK
protocol_details: Aequorin-based Ca2+ mobilization antagonist assay, CHO cells expressing PKR1
Format: cell-based
measurement_setup: antagonism of PK2-stimulated calcium mobilization in CHO cells; Ki = IC50/(1+[PK2]/EC50PK2); read-out: Ki for PKR1
Each entry below lists one item and its recorded log10 of Ki value.
property_label: log10 of Ki (log10 of the value in nM)

{"columns": ["compound", "log10 of Ki"],
 "data": [
  ["COc1cc(CN2CC[C@@H](C(=O)N(Cc3cc(Cl)c4c(c3)OCCCO4)CC(C)C)C2)ccc1F", 0.98],
  ["COc1cc(CNCC(C)C(=O)N(Cc2cc(Cl)c3c(c2)OCCCO3)CC(C)C)ccc1F (racemic)", 1.06],
  ["COc1cc(F)ccc1CN1CCC[C@@H](C(=O)N(Cc2cc(Cl)c3c(c2)OCCCO3)CC(C)C)C1", 1.81],
  ["COc1cc(CN2CCC[C@@H](C(=O)N(Cc3cc(Cl)c4c(c3)OCCCO4)CC(C)C)C2)ccc1F", 0.94],
  ["COc1cc(F)ccc1CN1CC[C@@H](C(=O)N(Cc2cc(Cl)c3c(c2)OCCCO3)CC(C)C)C1", 0.89],
  ["COc1cc(F)ccc1CNCC(C)C(=O)N(Cc1cc(Cl)c2c(c1)OCCCO2)CC(C)C (racemic)", 1.70],
  ["CC(=O)Oc1cccc(CN2CCC[C@@H](C(=O)N(Cc3cc(Cl)c4c(c3)OCCCO4)CC(C)C)C2)c1", 2.03],
  ["CC(C)CN(Cc1cnc2c(c1)OCCCO2)C(=O)C1CCCN(Cc2cccc3cc[nH]c23)C1 (single isomer, unassigned; (-))", 2.02],
  ["CC(C)CN(Cc1cc(Cl)c2c(c1)OCCCO2)C(=O)[C@@H]1CCCN(Cc2cccc3c2N(C)CC3)C1", 1.94],
  ["CC(=O)Oc1cccc(CN2CCOC(C(=O)N(Cc3cc(Cl)c4c(c3)OCCCO4)CC(C)C)C2)c1 (racemic)", 0.93],
  ["CC(C)CN(Cc1cc(Cl)c2c(c1)OCC(F)(F)CO2)C(=O)[C@@H]1CCN(Cc2ccccc2)C1", 2.35]
]}
